tested on: MOLT-4 leukemia; assay: NCI-60 one-dose screen, 48 h (100 = growth as untreated, 0 = no growth, -100 = all killed); conditions: 10 µM unless noted
About 83,000 compounds went through this panel and 20% of them were active in at least one assay; those are over-represented in the sample as a whole.
The reader will find reported growth values listed item by item below.

{"query.smiles": "O=C(NCc1ccco1)C1CCN(S(=O)(=O)c2ccc(Cl)cc2)CC1", "measurement.units": "%", "growth": 47.2}
{"query.smiles": "Nc1cccc2c(=S)c3ccccc3[nH]c12", "measurement.units": "%", "growth": 104}
{"query.smiles": "Cn1c(=O)c(S(=O)(=O)c2ccccc2)cc2ccc3c(cnn3-c3ccc(Cl)cc3)c21", "measurement.units": "%", "growth": 94.8}

* * *

test system: MDA-MB-231 breast; experiment: NCI-60 one-dose screen, 48 h; details: 10 µM unless noted
This is part of a sample that, as a whole, favours compounds with a hit. Of some 83,000 tested, about 20% had one in any assay. Activity calls are given as the source filed them. The calls were made as follows: active = growth percent below 10; inactive = the rest.
Classes used: active, inactive

{"compound": "O=C(NCc1cccnc1)c1ccc([N+](=O)[O-])o1", "system.under.test": "MDA-MB-231 breast", "label.value": "inactive"}
{"compound": "COc1ccc(S(=O)(=O)ON=C2C=C(C)C(=O)C(C)=C2)cc1", "system.under.test": "MDA-MB-231 breast", "label.value": "inactive"}
{"compound": "Cc1nc2cc(Nc3nc(Nc4ccc(F)cc4)nc(-c4ccc(Cl)cc4)n3)ccc2n1Cc1ccccc1", "system.under.test": "MDA-MB-231 breast", "label.value": "inactive"}
{"compound": "COc1ccc(-c2c3c(N)c4c(nc3nc3c2c(C)nn3-c2ccccc2)CCCCC4)cc1", "system.under.test": "MDA-MB-231 breast", "label.value": "inactive"}
{"compound": "Cc1cc(O)cc2c1[C@H]1CC[C@]3(C)[C@@H](O)CC[C@H]3[C@@H]1C=C2", "system.under.test": "MDA-MB-231 breast", "label.value": "inactive"}
{"compound": "COc1ccc(Nc2nc(NCCNc3ccnc4cc(Cl)ccc34)nc(N3CCOCC3)n2)cc1", "system.under.test": "MDA-MB-231 breast", "label.value": "inactive"}
{"compound": "CCOC(=O)c1cnn(CC(O)c2ccc(F)cc2)c1NC(=O)Nc1ccccc1F (stereo not given)", "system.under.test": "MDA-MB-231 breast", "label.value": "inactive"}
{"compound": "CCCCOC(=O)C1OC(Oc2ccc3c(C)cc(=O)oc3c2)[C@@H](OC(C)=O)C(OC(C)=O)C1OC(C)=O (stereo not given in full)", "system.under.test": "MDA-MB-231 breast", "label.value": "inactive"}
{"compound": "CN1CCN(CCCn2c3c(sc4ncccc43)c(=O)n3nnc(-c4ccccc4)c23)CC1", "system.under.test": "MDA-MB-231 breast", "label.value": "active"}
{"compound": "O=c1oc2ccccc2cc1-c1csc(N=Nc2c(O)[nH]c3ccc(Cl)cc23)n1", "system.under.test": "MDA-MB-231 breast", "label.value": "inactive"}

* * *

test system: RPMI-8226 leukemia; test: NCI-60 one-dose screen, 48 h (100 = growth as untreated, 0 = no growth, -100 = all killed); settings: 10 µM
About 83,000 compounds went through this panel and 20% of them were active in at least one assay; those are over-represented in the sample as a whole.
Threshold check on growth: strictly below 90% is MET; on or above 90% is NOT MET.

{"query.smiles": "Cc1ccc(S(=O)(=O)c2ccc3[nH]c(=O)[nH]c(=O)c3c2)cc1", "label.value": "NOT MET"}
{"query.smiles": "Cc1nn2c(-c3nc4ccc(Cl)cc4[nH]3)c(-c3ccc(F)cc3)nc2s1", "label.value": "MET"}
{"query.smiles": "Cc1nc2cc(Nc3nc(NCCN)nc(Nc4ccc(F)cc4)n3)ccc2n1Cc1ccccc1", "label.value": "MET"}
{"query.smiles": "O=[N+]([O-])c1ccc2nc(N/N=C/c3ccc(O)cc3)sc2c1", "label.value": "MET"}
{"query.smiles": "CON=C1C[C@]2(C[C@@H]3C[C@@H](C/C=C(\\C)C[C@@H](C)/C=C/C=C4\\CO[C@@H]5[C@H](O)C(C)=C[C@@H](C(=O)O3)[C@]45O)O2)O[C@H](/C(C)=C/C(C)C)[C@H]1C", "label.value": "MET"}
{"query.smiles": "Cn1c2ccccc2c2nn(C(=O)c3ccccc3)c(=O)nc21", "label.value": "NOT MET"}
{"query.smiles": "COc1ccc(-c2nc3sccn3c2/C=C/C(=O)c2cc(OC)c(OC)c(OC)c2)cc1OC", "label.value": "MET"}
{"query.smiles": "COc1ccc(C2OCC(C)(C)CO2)cc1OC", "label.value": "NOT MET"}
{"query.smiles": "Cc1cc(NS(=O)(=O)c2ccc(NC(=O)COc3ccc(-c4cc5ccccc5[nH]4)cc3)cc2)no1", "label.value": "MET"}
{"query.smiles": "Cc1cc(=O)c2c(C)ccc(C)c2[nH]1", "label.value": "NOT MET"}
{"query.smiles": "COC(=O)CCC(=O)c1ccccc1", "label.value": "NOT MET"}
{"query.smiles": "NC(=O)c1cc(I)ccc1NC(=O)COc1ccccc1", "label.value": "MET"}
{"query.smiles": "O=c1nc(NO)[nH]c(=O)n1Cc1ccc(F)cc1", "label.value": "NOT MET"}
{"query.smiles": "NS(=O)(=O)c1ccc(C(=O)N/N=C(\\CS(=O)(=O)c2ccccc2)c2cc3cc(Br)ccc3o2)cc1", "label.value": "NOT MET"}
